system: HIV-1 (NL4.3 WT); assay: Inhibition of HIV-induced cytopathogenic effect in MT-4 cells (MTT), HIV-1; type: cell-based; settings: Human immunodeficiency virus 1, MT4; 50% protection against HIV-induced cytopathogenic effect, MT-4 cells, MTT
observed property: IC50 (µg/mL)

Cc1[nH]c(=S)n(Nc2cccc(Cl)c2)c1-c1cccc(Br)c1 | 2.2

P: Cc1[nH]c(=S)n(Nc2cccc(Cl)c2)c1-c1cccc(Cl)c1
Q: Cc1ncn(Nc2cccc(Cl)c2)c1-c1cccc(Br)c1
Between P and Q , which one has the lower reported IC50 value? State the label of the item chosen.
Q

###

tested on: HIV-1 (NL4.3 WT); assay: Inhibition of HIV-induced cytopathogenic effect in MT-4 cells (MTT), HIV-1; type: cell-based; conditions: Human immunodeficiency virus 1, MT4; 50% protection against HIV-induced cytopathogenic effect, MT-4 cells, MTT
observed property: IC50 (µg/mL)

Cc1[nH]c(=S)n(Nc2cccc(F)c2)c1-c1ccccc1 | 5.5

P: Cc1cccc(Nn2c(-c3ccccc3)c(C)[nH]c2=S)c1
Q: Cc1[nH]c(=S)n(Nc2ccccc2)c1-c1ccccc1
R: Cc1[nH]c(=S)n(Nc2cccc(Cl)c2)c1-c1ccccc1
S: Cc1cccc(Nn2cnc(C)c2-c2ccccc2)c1
Sort low-to-high on IC50, please. # list labels per requested ordering
P, S, R, Q
(P: 0.6 µg/mL, S: 1.4 µg/mL, R: 2.8 µg/mL, Q: 5.2 µg/mL)

###

observed property: melting point (°C)

A selection of reference data follows.
Cc1[nH]c(=S)n(Nc2ccc(F)cc2)c1-c1ccccc1 | 228
Cc1[nH]c(=S)n(Nc2cccc(Cl)c2)c1C | 234
Cc1[nH]c(=S)n(Nc2cccc(Cl)c2)c1-c1ccc(Cl)cc1 | 225

I: Cc1ccc(Nn2c(-c3ccccc3)c(C)[nH]c2=S)cc1C
II: Cc1ncn(Nc2cccc(Cl)c2)c1C
Quick check, higher melting point between I and II ? Let me know the label of the one you choose.
I

###

observed property: melting point (°C)

# annotated cases, reported melting point shown
Clc1cccc(Nn2cnc3c2CCCC3)c1 [Compound 13.04] | 180
COc1ccc(-c2c(C)[nH]c(=S)n2Nc2cccc(Cl)c2)cc1 [Compound 9.09] | 226

1: S=c1[nH]c2c(n1Nc1cccc(Cl)c1)CCCC2 [Compound 9.11]
2: Cc1[nH]c(=S)n(Nc2cccc(F)c2)c1-c1ccccc1 [Compound 9.18]
Given the listed items, does 1 or 2 have the lesser reported melting point? Please identify the chosen entry by its label.
1
(1: 148 °C, 2: 226 °C)

###

observed property: melting point (°C)

Cc1ccc(Nn2c(-c3ccccc3)c(C)[nH]c2=S)cc1Cl [Compound 9.15] | 190
Cc1[nH]c(=S)n(Nc2cccc(Cl)c2)c1-c1cccc(Cl)c1 [Compound 9.07] | 204
Cc1nc(SCc2ccccc2)n(Nc2cccc(Cl)c2)c1-c1ccccc1 | 130
CSc1nc(C)c(-c2ccccc2)n1Nc1cccc(Cl)c1 | 215
Cc1[nH]c(=S)n(Nc2cccc([N+](=O)[O-])c2)c1-c1ccccc1 [Compound 9.17] | 214
Cc1cccc(Nn2c(C)c(C)[nH]c2=S)c1 [Compound 9.22] | 230
Cc1ncn(Nc2cccc(Cl)c2)c1-c1cccc(Cl)c1 [Compound 13.03] | 168

###

test: Cytotoxicity in mock-infected MT-4 cells (MTT); assay type: cell-based; settings: human; mock-infected MT-4 cells, absorbance reduced by 50%, MTT
observed property: CC50 (µg/mL)
Respond with the bare value in µg/mL.

CCc1[nH]c(=S)n(Nc2cccc(C)c2)c1-c1ccccc1 | 19.8
Cc1ncn(Nc2cccc(Cl)c2)c1-c1ccccc1 | 3.25
Cc1[nH]c(=S)n(Nc2cccc(Br)c2)c1-c1ccccc1 | 17.1
Cc1[nH]c(=S)n(Nc2cccc(Cl)c2)c1-c1ccccc1 | 21.5
Cc1ncn(Nc2cccc(Cl)c2)c1-c1cccc(Br)c1 | 3.13

Reported CC50 for `S=c1[nH]c2c(n1Nc1cccc(Cl)c1)CCCC2` was 34

Lab book: CC50 of `Cc1[nH]c(=S)n(Nc2cccc(F)c2)c1-c1ccccc1` noted as 47.3

###

Item-by-item account of melting point

Solved entries:
Cc1ncn(Nc2ccccc2)c1-c1ccccc1 | 165 to 167 °C
Cc1cccc(Nn2c(-c3ccccc3)c(C(C)C)[nH]c2=S)c1 | 220 to 222 °C
COc1cccc(Nn2cnc(C)c2-c2ccccc2)c1 | 156 to 158 °C
Cc1[nH]c(=S)n(Nc2ccccc2)c1C | 217 to 219 °C

As a next step, examine the molecule that follows.
The molecule `S=c1[nH]c(-c2ccccc2)c(-c2ccccc2)n1Nc1cccc(Cl)c1` showed melting point equal to 178 to 180 °C

###

observed property: melting point

Answered cases to consult:
Cc1[nH]c(=S)n(Nc2ccc(Cl)cc2)c1-c1ccccc1 | 212 to 214 °C
COC(=O)c1c(C)[nH]c(=S)n1Nc1cccc(Cl)c1 | 194 to 196 °C

Note to self: melting point recorded for `COC(=O)c1cccc(-c2c(C)[nH]c(=S)n2Nc2cccc(C)c2)c1` was 164 to 166 °C

Notebook: `CCc1ncn(Nc2cccc(C)c2)c1-c1ccccc1` , melting point read as 158 to 160 °C

Short answer for `Cc1[nH]c(=S)n(Nc2ccccc2Cl)c1-c1ccccc1` : melting point was 220 to 221 °C

###

Reported values of melting point for individual entries

Completed entries (count: 4):
CCc1[nH]c(=S)n(Nc2cccc(C)c2)c1-c1ccccc1 | 202 to 204 °C
Cc1cc(C)cc(Nn2c(-c3ccccc3)c(C)[nH]c2=S)c1 | 240 to 242 °C
Cc1cccc(Nn2cnc(C)c2-c2cccc(C#N)c2)c1 | 138 to 140 °C
Cc1[nH]c(=S)n(Nc2cccc(Cl)c2)c1C(=O)O | 166 to 168 °C

Here is another compound to look at.
Reported melting point for `CCc1[nH]c(=S)n(Nc2cccc(Cl)c2)c1-c1ccccc1` was 116 to 118 °C

###

assay: Cytotoxicity in mock-infected MT-4 cells (MTT); type: cell-based; conditions: human; mock-infected MT-4 cells, absorbance reduced by 50%, MTT
observed property: CC50 (µg/mL)
// return numeric value only (unit: µg/mL, not printed)

Cc1[nH]c(=S)n(Nc2cccc([N+](=O)[O-])c2)c1-c1ccccc1 | 15.4
Cc1cccc(Nn2cnc(C)c2-c2ccccc2)c1 | 7.6

Shift focus to the following entry.
Reported CC50 of `Cc1cc(C)cc(Nn2c(-c3ccccc3)c(C)[nH]c2=S)c1` : 65.3
